// provenance: ChEMBL document CHEMBL3997788

target: Retinoic acid receptor RXR-alpha (Homo sapiens); experiment: Binding affinity to RXRalpha-LBD (unknown origin) measured up to 120 sec by surface plasma resonance method
Sequence (P19793 whole entry, the tested form may be a part): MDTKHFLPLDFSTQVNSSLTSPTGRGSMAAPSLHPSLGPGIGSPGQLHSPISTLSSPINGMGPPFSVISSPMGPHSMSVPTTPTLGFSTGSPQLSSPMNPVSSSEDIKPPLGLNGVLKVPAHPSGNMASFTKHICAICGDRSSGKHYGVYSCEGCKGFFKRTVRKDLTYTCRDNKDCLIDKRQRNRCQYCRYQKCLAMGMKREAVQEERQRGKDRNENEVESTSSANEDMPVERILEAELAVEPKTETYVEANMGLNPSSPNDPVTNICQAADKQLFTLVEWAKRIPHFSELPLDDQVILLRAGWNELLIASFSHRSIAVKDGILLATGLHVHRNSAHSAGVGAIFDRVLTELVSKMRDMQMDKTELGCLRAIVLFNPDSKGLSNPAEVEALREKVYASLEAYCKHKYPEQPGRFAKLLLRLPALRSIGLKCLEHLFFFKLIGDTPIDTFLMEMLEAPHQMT
ASSAY_READOUT: Kd (µM)
Answers are plain numbers, in µM.

These solved cases illustrate the format of a correct answer.
* O=C1C=CCC(/C=C/c2c(C3CC3)nc3ccccc3c2-c2ccc(F)cc2)O1 (stereo not given) | 138
* CC(C)n1c(/C=C/C(O)CC(O)CC(=O)O)c(-c2ccc(F)cc2)c2ccccc21 (stereo not given) | 11
* O=C(O)C[C@H](O)C[C@H](O)/C=C/c1c(C2CC2)nc2ccccc2c1-c1ccc(F)cc1 | 13.3
* O=c1[nH]c2ccccc2n1CCCN1CCC(n2c(=O)[nH]c3cc(Cl)ccc32)CC1 | 8.8

-- ask Consider the compound `O=C(O)/C=C/C=C/C=C/c1c(C2CC2)nc2ccccc2c1-c1ccc(F)cc1` and give its measured Kd.
-- reply 5.12
